test: Pharmacokinetic evaluation in mice (IV and PO); type: in vivo; details: mouse, plasma; CD-1 mice; dose IV:0.5, PO:2 mg/kg; read-out: Clearance CL
Experimental Readout: clearance (mL/min/kg)
Write the number in mL/min/kg without appending the unit.

Consider the worked cases shown below.
# Molecule, Reported Measurement
rows = [
    ("Cc1c(NC(=O)CC(C)(C)C)n(C)c2cc(Nc3ccc(F)cn3)ccc12 [Compound 11]", 50.3),
    ("CC(C)(C)CC(=O)Nc1nc2c(F)cc(Nc3ccc(F)cc3)cc2n1C1CCC1 [Compound 4]", 17.9),
    ("Cc1c(NC(=O)CC(C)(C)C)n(C)c2cc(Nc3ccc(C(F)(F)F)cc3)ccc12 [Compound 5]", 9.1),
]

Field: next molecule
So what does the record say about clearance for Cc1c(NC(=O)CC(C)(C)C)n(C)c2cc(Nc3ccc(F)cc3)ccc12 [Compound 1] ?
34.8
